- Tested on: Liver microsomes
- measurement-description: Intrinsic clearance in rat liver microsomes at 1 uM by LC/MS analysis
- Type: ADME, Microsome
readout-type: CLH (mL/min)
Give bare numbers, in mL/min.

Please review the following examples before continuing.
CC(C)S(=O)(=O)NC[C@H]1CC[C@H](NC(=O)Cn2ccc3ccccc32)CC1; 27
CC(C)S(=O)(=O)NC[C@H]1CC[C@H](NC(=O)Cc2cn(C)c3ccccc23)CC1; 22
CC(C)S(=O)(=O)NC[C@H]1CC[C@H](NC(=O)Cn2ccc3cc(F)ccc32)CC1; 11
CC(C)S(=O)(=O)NC[C@H]1CC[C@H](NC(=O)CN2C(=O)CCc3cc(Cl)ccc32)CC1; 40

Switching to the query record.
Reported CLH of `CC(C)S(=O)(=O)NC[C@H]1CC[C@H](NC(=O)CN2CC(C)(C)c3cc(Cl)ccc32)CC1` : 205

* * *

- System: Brain
- measurement-description: Drug uptake in Sprague-Dawley rat brain at 10 mg/kg, po by LC-MS/MS analysis
- Type: ADME, organism-based
- Set-up: dose 10 mg/kg, route oral
- reported-conditions: in vivo, read-out: Drug uptake
readout-type: concentration (nM)
Numbers only, in nM.

# annotated cases, reported concentration shown
Cc1ccc2c(c1)CCN2CC(=O)N[C@H]1CC[C@H](CNS(=O)(=O)C(C)C)CC1; 477
CC(C)S(=O)(=O)NC[C@H]1CC[C@H](NC(=O)Cn2ccc3ccc(Cl)cc32)CC1; 134
CC(C)S(=O)(=O)NC[C@H]1CC[C@H](NC(=O)Cn2c(=O)sc3cc(Cl)ccc32)CC1; 11
CC(C)S(=O)(=O)NC[C@H]1CC[C@H](NC(=O)CN2CCCc3cc(Cl)ccc32)CC1; 88

Reading of concentration for `CC(C)S(=O)(=O)NC[C@H]1CC[C@H](NC(=O)Cn2ccc3cc(C#N)ccc32)CC1` with Brain: 43

* * *

- measurement-description: Solubility of the compound at pH 7.4
- Assay type: physicochemical
- reported-conditions: buffer
readout-type: solubility (µM)
Answers are plain numbers, in µM.

CC(C)S(=O)(=O)NC[C@H]1CC[C@H](NC(=O)Cn2ccc3cc(Cl)ccc32)CC1; 160

# evaluate next
Just so you know, measured solubility for `CC(C)S(=O)(=O)NC[C@H]1CC[C@H](NC(=O)CN2CCc3cc(Cl)ccc32)CC1` came out at 154

* * *

- measurement-description: Drug uptake in cPP-induced feeding Sprague-Dawley rat model brain at 0.1 mg/kg, po after 1 hr
- Assay type: ADME, organism-based
- Set-up: dose 0.1 mg/kg, route oral
- reported-conditions: read-out: Drug uptake
Exercise: for every item that follows, state its recorded concentration at 1 h.
Give bare numbers, in ng/g.

CC(C)S(=O)(=O)NC[C@H]1CC[C@H](NC(=O)CN2CCc3cc(Cl)ccc32)CC1; 11

Measured concentration at 1 h of `CC(C)S(=O)(=O)NC[C@H]1CC[C@H](NC(=O)Cn2ccc3cc(Cl)ccc32)CC1` : 6

* * *

- measurement-description: Absolute oral bioavailability in Sprague-Dawley rat at 2 mg/kg after 24 hrs wash out period by HPLC analysis
- Assay type: ADME, organism-based
- reported-conditions: in vivo
I'd be grateful if you could share measured bioavailability for these entries.
// unit must come after the numeric part

CC(C)S(=O)(=O)NC[C@H]1CC[C@H](NC(=O)CN2CCc3cc(Cl)ccc32)CC1; 100%

# context switch: different compound, same bioavailability
Entry `CC(C)S(=O)(=O)NC[C@H]1CC[C@H](NC(=O)Cn2ccc3cc(Cl)ccc32)CC1` ; bioavailability = 79%

Where do these numbers come from? They come from ChEMBL document CHEMBL2010694.
